Overview of reported Specific Activity (intracellular Ca ion level-increasing activity) across a group of compounds:
Biological target: hOT7T175 (Homo sapiens, UniProt Q969F8, L364H)
Sequence (Q969F8 whole entry L364H): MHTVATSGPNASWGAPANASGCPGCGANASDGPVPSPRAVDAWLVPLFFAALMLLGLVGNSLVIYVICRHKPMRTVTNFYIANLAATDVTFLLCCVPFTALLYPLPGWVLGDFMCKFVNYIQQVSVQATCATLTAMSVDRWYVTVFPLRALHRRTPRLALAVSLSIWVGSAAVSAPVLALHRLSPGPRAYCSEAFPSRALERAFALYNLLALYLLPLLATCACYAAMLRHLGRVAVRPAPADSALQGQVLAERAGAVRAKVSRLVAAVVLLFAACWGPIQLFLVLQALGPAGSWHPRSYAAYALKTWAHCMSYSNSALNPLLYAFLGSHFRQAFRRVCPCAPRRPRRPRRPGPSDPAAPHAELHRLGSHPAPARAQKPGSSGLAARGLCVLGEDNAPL
Assay: Intracellular Ca ion level-increasing activity using FLIPR in hOT7T175/CHO
Type: cell-based
Parameters: expressed in transfected cells; host or cells: CHO/dhfr- cells, obtained from ATCC
Conditions: relative, Metastin (1-54) = 1
Numbered stars: 1 amine (or outer) side, 2 acyl side, 3 side chain; on linkers, the order of the positions; unused ones are H or OH. Square brackets hold non-standard residues; d marks the D form. Peptide text beside a SMILES is read from it. * marks the point of attachment. Butyryl(4-indol-3-yl) = O=C(CCCc1c[nH]c2ccccc12)*; X7 = CNC(=N)NCCCC[C@H](N[*:1])C(=O)[*:2]; Arg(Me) = CNC(=N)NCCC[C@H](N)C(=O)O; azaGly = NNC(=O)O
// no unit, no text: just the number

compound | measured.number
CNC(=N)NCCC[C@H](NC(=O)[C@H](CC(C)C)NC(=O)NNC(=O)[C@H](Cc1ccccc1)NC(=O)[C@H](CO)NC(=O)[C@H](CC(N)=O)NC(=O)CCCc1c[nH]c2ccccc12)C(=O)N[C@@H](Cc1ccccc1)C(N)=O [Compound No. 267] ({Butyryl(4-indol-3-yl)}-NSF[azaGly]L[Arg(Me)]F-NH2) | 2
CNC(=N)NCCCC[C@H](NC(=O)[C@H](CC(C)C)NC(=O)CNC(=O)[C@H](Cc1ccccc1)NC(=O)[C@H](CO)NC(=O)[C@H](CC(N)=O)NC(=O)[C@H](Cc1c[nH]c2ccccc12)NC(=O)[C@H](CC(N)=O)NC(=O)[C@@H](N)Cc1ccc(O)cc1)C(=O)N[C@@H](Cc1ccccc1)C(N)=O [Compound No. 312] (H-YNWNSFGL[X7]F-NH2) | 3

Look up and state reported Specific Activity (intracellular Ca ion level-increasing activity) for `CC(C)C[C@H](NC(=O)CNC(=O)[C@H](Cc1ccccc1)NC(=O)[C@H](CO)NC(=O)[C@H](CC(N)=O)NC(=O)[C@H](Cc1c[nH]c2ccccc12)NC(=O)[C@H](CC(N)=O)NC(=O)[C@H](N)Cc1ccc(O)cc1)C(=O)N[C@@H](CCCNC(=N)N)C(=O)N[C@@H](Cc1ccccc1)C(N)=O`
30

----------
Target: hOT7T175 (Homo sapiens, UniProt Q969F8, L364H)
Assay: Intracellular Ca ion level-increasing activity using FLIPR in hOT7T175/CHO
Format: cell-based
Set-up: expressed in transfected cells; host or cells: CHO/dhfr- cells, obtained from ATCC
Conditions: relative, Metastin (1-54) = 1
Square brackets hold non-standard residues; d marks the D form. Peptide text beside a SMILES is read from it. * marks the point of attachment. X4 = CC(C)C[C@H](NCCN*)C(=O)N[C@@H](CCCNC(=N)N)C(=O)N[C@@H](Cc1ccccc1)C(N)=O; Phe(4-F) = N[C@@H](Cc1ccc(F)cc1)C(=O)O; Arg(Me) = CNC(=N)NCCC[C@H](N)C(=O)O; 4Pal = N[C@@H](Cc1ccncc1)C(=O)O; Hexanoyl = CCCCCC(=O)*; azaGly = NNC(=O)O
compounds and their reported Specific Activity (intracellular Ca ion level-increasing activity)
Just the number, please, no unit after it.

Below, each entry is followed by its recorded Specific Activity (intracellular Ca ion level-increasing activity) result.
compound | target | measured.number
CCNC(=N)NCCC[C@H](NC(=O)[C@H](CC(C)C)NC(=O)CNC(=O)[C@H](Cc1ccccc1)NC(=O)[C@H](CO)NC(=O)[C@H](CC(N)=O)NC(=O)[C@H](Cc1c[nH]c2ccccc12)NC(=O)[C@H](CC(N)=O)NC(=O)[C@H](N)Cc1ccc(O)cc1)C(=O)N[C@@H](Cc1ccccc1)C(N)=O | hOT7T175 (Homo sapiens, UniProt Q969F8, L364H) | 1
CCCCCC(=O)N[C@@H](CC(N)=O)C(=O)N[C@@H](CO)C(=O)N[C@@H](Cc1ccccc1)C(=O)NNC(=O)N[C@@H](CC(C)C)C(=O)N[C@@H](CCCNC(=N)NC)C(=O)N[C@@H](Cc1ccccc1)C(N)=O [Compound No. 277] (Hexanoyl-NSF[azaGly]L[Arg(Me)]F-NH2) | hOT7T175 (Homo sapiens, UniProt Q969F8, L364H) | 2
CNC(=N)NCCC[C@H](NC(=O)[C@H](CC(C)C)NC(=O)NNC(=O)[C@H](Cc1ccccc1)NC(=O)[C@H](CO)NC(=O)[C@H](CC(N)=O)NC(=O)[C@H](Cc1ccncc1)NC(=O)[C@@H](CC(N)=O)NC(=O)[C@H](N)Cc1ccc(O)cc1)C(=O)N[C@@H](Cc1ccccc1)C(N)=O [Compound No. 303] (H-[dY][dN][4Pal]NSF[azaGly]L[Arg(Me)]F-NH2) | hOT7T175 (Homo sapiens, UniProt Q969F8, L364H) | 5
CCCC[C@H](NC(=O)CNC(=O)[C@H](Cc1ccccc1)NC(=O)[C@H](CO)NC(=O)[C@H](CC(N)=O)NC(=O)[C@H](Cc1c[nH]c2ccccc12)NC(=O)[C@H](CC(N)=O)NC(=O)[C@@H](N)Cc1ccc(O)cc1)C(=O)N[C@@H](CCCNC(=N)N)C(=O)N[C@@H](Cc1ccccc1)C(N)=O | hOT7T175 (Homo sapiens, UniProt Q969F8, L364H) | 1

Given CNC(=N)NCCC[C@H](NC(=O)[C@H](CC(C)C)NC(=O)NNC(=O)[C@H](Cc1ccccc1)NC(=O)[C@H](CO)NC(=O)[C@H](CC(N)=O)NC(=O)[C@H](Cc1ccncc1)NC(=O)[C@@H](CC(N)=O)NC(=O)[C@H](N)Cc1ccc(O)cc1)C(=O)N[C@@H](Cc1ccc(F)cc1)C(N)=O [Compound No. 317] (H-[dY][dN][4Pal]NSF[azaGly]L[Arg(Me)][Phe(4-F)]-NH2) , report its Specific Activity (intracellular Ca ion level-increasing activity) on hOT7T175 (Homo sapiens, UniProt Q969F8, L364H).
1

Report Specific Activity (intracellular Ca ion level-increasing activity) on hOT7T175 (Homo sapiens, UniProt Q969F8, L364H) for this entry: CC(C)C[C@H](NCCNC(=O)[C@H](Cc1ccccc1)NC(=O)[C@H](CO)NC(=O)[C@H](CC(N)=O)NC(=O)[C@H](Cc1c[nH]c2ccccc12)NC(=O)[C@H](CC(N)=O)NC(=O)[C@@H](N)Cc1ccc(O)cc1)C(=O)N[C@@H](CCCNC(=N)N)C(=O)N[C@@H](Cc1ccccc1)C(N)=O [Compound No. 261] (H-YNWNSF-X4; N-terminus assumed)
1

----------
Biological target: hOT7T175 (Homo sapiens, UniProt Q969F8, L364H)
Assay: Intracellular Ca ion level-increasing activity using FLIPR in hOT7T175/CHO
Format: cell-based
Parameters: expressed in transfected cells; host or cells: CHO/dhfr- cells, obtained from ATCC
Conditions: relative, Metastin (1-54) = 1
Square brackets hold non-standard residues; d marks the D form. Peptide text beside a SMILES is read from it. * marks the point of attachment. Arg(Me) = CNC(=N)NCCC[C@H](N)C(=O)O; 4Pal = N[C@@H](Cc1ccncc1)C(=O)O; X6 = O=C(c1c[nH]c2ccccc12)*; azaGly = NNC(=O)O
Below, each entry is listed with its recorded Specific Activity (intracellular Ca ion level-increasing activity).
// no unit string in output, number only

molecule | target | measured.number
CNC(=N)NCCC[C@H](NC(=O)[C@H](CC(C)C)NC(=O)CNC(=O)[C@H](Cc1ccccc1)NC(=O)[C@H](CO)NC(=O)[C@H](CC(N)=O)NC(=O)[C@H](Cc1c[nH]c2ccccc12)NC(=O)[C@H](N)CC(N)=O)C(=O)N[C@@H](Cc1ccccc1)C(N)=O [Compound No. 216] (H-[dN]WNSFGL[Arg(Me)]F-NH2; N-terminus assumed) | hOT7T175 (Homo sapiens, UniProt Q969F8, L364H) | 1
CNC(=N)NCCC[C@H](NC(=O)[C@H](CC(C)C)NC(=O)NNC(=O)[C@H](Cc1ccccc1)NC(=O)[C@H](CO)NC(=O)[C@H](CC(N)=O)NC(=O)[C@H](Cc1c[nH]c2ccccc12)NC(=O)[C@@H](CO)NC(=O)[C@H](N)Cc1ccc(O)cc1)C(=O)N[C@@H](Cc1ccccc1)C(N)=O [Compound No. 287] (H-[dY][dS]WNSF[azaGly]L[Arg(Me)]F-NH2) | hOT7T175 (Homo sapiens, UniProt Q969F8, L364H) | 2
CC(C)C[C@H](NC(=O)CNC[C@H](Cc1ccccc1)NC(=O)[C@H](CO)NC(=O)[C@H](CC(N)=O)NC(=O)[C@H](Cc1c[nH]c2ccccc12)NC(=O)[C@H](CC(N)=O)NC(=O)[C@@H](N)Cc1ccc(O)cc1)C(=O)N[C@@H](CCCNC(=N)N)C(=O)N[C@@H](Cc1ccccc1)C(N)=O | hOT7T175 (Homo sapiens, UniProt Q969F8, L364H) | 1
CC(C)C[C@H](NC(=O)[C@H](CO)NC(=O)[C@H](Cc1ccccc1)NC(=O)[C@H](CO)NC(=O)[C@H](CC(N)=O)NC(=O)[C@H](Cc1c[nH]c2ccccc12)NC(=O)[C@H](CC(N)=O)NC(=O)[C@@H](N)Cc1ccc(O)cc1)C(=O)N[C@@H](CCCNC(=N)N)C(=O)N[C@@H](Cc1ccccc1)C(N)=O [Compound No. 101] (H-YNWNSFSLRF-NH2) | hOT7T175 (Homo sapiens, UniProt Q969F8, L364H) | 10
CNC(=N)NCCC[C@H](NC(=O)[C@H](CC(C)C)NC(=O)NNC(=O)[C@H](Cc1ccccc1)NC(=O)[C@H](CO)NC(=O)[C@H](CC(N)=O)NC(=O)c1c[nH]c2ccccc12)C(=O)N[C@@H](Cc1ccccc1)C(N)=O [Compound No. 265] (X6-NSF[azaGly]L[Arg(Me)]F-NH2) | hOT7T175 (Homo sapiens, UniProt Q969F8, L364H) | 3

Turning now to a further molecule:
Query Specific Activity (intracellular Ca ion level-increasing activity) for CNC(=N)NCCC[C@H](NC(=O)[C@H](CC(C)C)NC(=O)NNC(=O)[C@H](Cc1ccccc1)NC(=O)[C@H](CO)NC(=O)[C@H](CC(N)=O)NC(=O)[C@H](Cc1ccncc1)NC(=O)[C@H](CC(N)=O)NC(=O)[C@H](N)Cc1ccc(O)cc1)C(=O)N[C@@H](Cc1ccccc1)C(N)=O [Compound No. 286] (H-[dY]N[4Pal]NSF[azaGly]L[Arg(Me)]F-NH2)
2

Sourced from patent US8361968B2
